This section presents compounds with their documented relative growth in counter assay values.
test system: HEK293FT dCK*-only; test: relative growth in counter assay (no AraC = 100%, AraC + DMSO = 0%); higher = more growth rescue independent of IKZF1; details: compound concentration: 5 uM; AraC concentration: 0.3 uM; overnight pretreatment + 4 days AraC
The full ranking holds about 1,000 compounds; the median of “relative growth in counter assay (no AraC = 100%, AraC + DMSO = 0%)” is about -1.1, and the highest 2% start at about 20. Only a selection was taken, and the highest values are over-represented in it overall.
Just the number in %, nothing appended.

Solved cases below.
Query: Consider the compound "CC(=O)Nc1cccc(-c2csc(Nc3cccc(C)n3)n2)c1" and give its measured relative growth in counter assay.
Result: 5.94

Query: Consider the compound Cc1cnc(Nc2cccc(C3CN(C(=O)COc4cccc(F)c4)CCO3)n2)s1 (centres undefined) and give its measured relative growth in counter assay.
Result: -7.34

Query: Consider the compound CN(C)CC(=O)N1CCCC1c1cccc(Nc2nccs2)n1 (centres undefined) and give its measured relative growth in counter assay.
Result: -0.55

Next:
Query: Consider the compound "Cc1cccc(Nc2nc(-c3sc(NC(=O)c4ccccc4)nc3C)cs2)n1" and give its measured relative growth in counter assay.
Result: 60.5

Numbers sourced from the supplement of paper PMC12340641.
